- assay.details: Rat Liver Microsome Stability Assay
- Assay type: in vitro ADME
- run.conditions: rat liver microsomes, 1 uM compound
For each entry below, report its RLM % Qh (%) value.
Include the unit right after the number.

Solved entries:
CC(=O)Nc1ncc(CN2C[C@@H](Oc3ccc(F)cn3)C[C@H]2C)s1 [Example 1-8]; 76%
CC(=O)Nc1ncc(CN2C[C@H](Oc3cnc(Cl)cc3C)C[C@@H]2C)s1 [Example 1-17]; 88%
COc1cc(O[C@H]2C[C@H](C)N(Cc3cnc(NC(C)=O)s3)C2)ncn1 [Example 1-39]; 57%
CC(=O)Nc1nc(F)c(CN2C[C@H](Oc3cc(F)c(F)cn3)C[C@@H]2C)s1 [Example 1-102]; 82%
CC(=O)Nc1ncc(CN2CC[C@@H](Oc3cc(C)nc(C)c3)C2)s1 [Example 1-59]; 55%

I'm hoping you can list RLM % Qh (%) for every molecule here, please.
1. COc1ncnc(O[C@@H]2C[C@H](C)N(Cc3cnc(NC(C)=O)s3)C2)c1C [Example 1-71]
2. COc1cc(O[C@@H]2CCN(Cc3sc(NC(C)=O)nc3F)C2)ncn1 [Example 1-28]

Given back:
1. 76%
2. 33%

I'm hoping you can list RLM % Qh (%) for every molecule here, please.
1. COc1ccc(O[C@@H]2C[C@H](C)N(Cc3cnc(NC(C)=O)s3)C2)nn1 [Example 1-68]
2. CC(=O)Nc1ncc(CN2C[C@H](Oc3cc(C)ncc3C)C[C@@H]2C)s1 [Example 1-72]
3. COc1nccc(O[C@@H]2C[C@H](C)N(Cc3sc(NC(C)=O)nc3F)C2)n1 [Example 1-92]
4. CCN(C)c1cc(O[C@@H]2C[C@H](C)N(Cc3cnc(NC(C)=O)s3)C2)ncn1 [Example 1-132]
5. CC(=O)Nc1ncc(CN2C[C@H](Oc3cc(C)nc(C)c3)C[C@H]2C)s1 [Example 1-61]

Given back:
1. 34%
2. 64%
3. 54%
4. 76%
5. 31%

I'm hoping you can list RLM % Qh (%) for every molecule here, please.
1. [2H]C([2H])([2H])C(=O)Nc1ncc(CN2C[C@H](Oc3cc(OC)ncn3)C[C@@H]2C)s1 (single isomer, unassigned) [Example 1-156]
2. CC(=O)Nc1ncc(CN2C[C@H](Oc3ccnc(OC(F)F)c3)C[C@@H]2C)s1 [Example 1-20]
3. CC(=O)Nc1nc(F)c(CN2C[C@H](Oc3ccc(F)cn3)C[C@@H]2C)s1 [Example 1-47]
4. CC(=O)Nc1ncc(CN2CCC[C@H](Oc3ccc(F)cn3)C2)s1 [Example 1-2]

Given back:
35%
63%
76%
86%

I'm hoping you can list RLM % Qh (%) for every molecule here, please.
1. COc1ccnc(O[C@@H]2C[C@H](C)N(Cc3sc(NC(C)=O)nc3F)C2)n1 [Example 1-91]
2. CO[C@H]1C[C@H](Oc2cc(O[C@@H]3C[C@H](C)N(Cc4cnc(NC(C)=O)s4)C3)ncn2)C1 [Example 1-120]
3. CC(=O)Nc1ncc(CN2C[C@H](Oc3cc(C)nc(C)c3)C[C@@H]2C)s1 [Example 1-60]

Given back:
1. 81%
2. 64%
3. 56%
